Study target: KRAS G12C (Homo sapiens (Human), UniProt P01116, C118A/G12C)
Sequence (P01116 other isoform, or with tags, fused parts or gaps G12C/C118A): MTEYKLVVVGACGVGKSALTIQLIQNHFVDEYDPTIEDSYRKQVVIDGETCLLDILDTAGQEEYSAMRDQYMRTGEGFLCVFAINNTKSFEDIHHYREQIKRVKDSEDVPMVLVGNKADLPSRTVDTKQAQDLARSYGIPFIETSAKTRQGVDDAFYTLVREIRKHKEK
Assay summary: 2 h coupled exchange assay
Format: biochemical
Settings: Avg 2 h Coupled exchange IC50, 2 h compound pre-incubation, SOS-mediated nucleotide exchange
Readout name: pIC50
Notebook: values listed as pIC50 are -log10 of the concentration (mol/L).

What pIC50 value was documented for this molecule, C=CC(=O)N1CC2(CCN(c3nc4c(c(-c5c(C)ccc6cn[nH]c56)n3)CCCC4)C2)C1 ?
5.17

What pIC50 value was documented for this molecule, C=CC(=O)N1CC2(CCN(c3nc4c(N5CCCC5)ccn4c(-c4c(C)ccc5[nH]ncc45)c3C#N)C2)C1 ?
6.61

What pIC50 value was documented for this molecule, C=CC(=O)N1CC2(CCN(c3nc4c(c(-c5cc(O)c(F)c6ccccc56)c3C#N)CC[C@H]3C[C@@H]43)C2)C1 (single isomer, unassigned) [Example 13-73] ?
4.71

----------
Study target: KRAS G12C (Homo sapiens (Human), UniProt P01116, C118A/G12C)
Assay summary: 2 h coupled exchange assay
Assay type: biochemical
Settings: Avg 2 h Coupled exchange IC50, 2 h compound pre-incubation, SOS-mediated nucleotide exchange
For each of the compounds below, state its pIC50.
Notebook: values listed as pIC50 are -log10 of the concentration (mol/L).

Checklist item: pIC50 tested on KRAS G12C (Homo sapiens (Human), UniProt P01116, C118A/G12C), entry C=CC(=O)N1CC2(CCN(c3nc4c(c(-c5c(F)ccc6cc[nH]c56)c3C#N)C[C@H]3C[C@@H]4C3(C)C)C2)C1 [Example 12-15] , value?
6.33

Checklist item: pIC50 tested on KRAS G12C (Homo sapiens (Human), UniProt P01116, C118A/G12C), entry C=CC(=O)N1CC2(CCN(c3nc4c(c(-c5c(C)ccc6[nH]ncc56)c3C#N)CCC4)C2)C1 [Example 1-3] , value?
6.81

Checklist item: pIC50 tested on KRAS G12C (Homo sapiens (Human), UniProt P01116, C118A/G12C), entry C=CC(=O)N1CC2(CCN(c3nc4c(c(-c5c(O)cccc5Cl)c3C#N)C[C@H]3C[C@@H]4C3)C2)C1 (single isomer, unassigned) [Example 13-67] , value?
6.30

Checklist item: pIC50 tested on KRAS G12C (Homo sapiens (Human), UniProt P01116, C118A/G12C), entry C=CC(=O)N1CC2(CCN(c3nc4ccccc4c(-c4c(C)ccc5[nH]ncc45)c3C)C2)C1 [Example 8] , value?
5.90

Checklist item: pIC50 tested on KRAS G12C (Homo sapiens (Human), UniProt P01116, C118A/G12C), entry C=CC(=O)N1CC2(CCN(c3nc4c(c(-c5cc(O)ccc5C)c3C#N)COC(C)(C)C4)C2)C1 (single isomer, unassigned) [Example 13-128] , value?
7.04

Checklist item: pIC50 tested on KRAS G12C (Homo sapiens (Human), UniProt P01116, C118A/G12C), entry C=CC(=O)N1CC2(CCN(c3nc4c(c(-c5c(C)ccc6[nH]ncc56)c3C#N)CCC4(C)C)C2)C1 [Example 13-97] , value?
7.34

Checklist item: pIC50 tested on KRAS G12C (Homo sapiens (Human), UniProt P01116, C118A/G12C), entry C=CC(=O)N1CC2(CCN(c3nc4c(c(-c5c(O)cccc5Cl)c3C#N)C[C@H]3C[C@@H]4C3)C2)C1 [Example 13-64] , value?
5.97

Checklist item: pIC50 tested on KRAS G12C (Homo sapiens (Human), UniProt P01116, C118A/G12C), entry C=CC(=O)N1CC2(CCN(c3nc(-c4c(C)ccc5[nH]ncc45)c4c(n3)N(C)CC4)C2)C1 [Example 5] , value?
3.74

Checklist item: pIC50 tested on KRAS G12C (Homo sapiens (Human), UniProt P01116, C118A/G12C), entry C=CC(=O)N1CC2(CCN(c3nc4cc(F)ccc4c(-c4c(C)ccc5[nH]ncc45)c3C)[C@H]2C)C1 (single isomer, unassigned) [Example 2-58] , value?
6.55

Checklist item: pIC50 tested on KRAS G12C (Homo sapiens (Human), UniProt P01116, C118A/G12C), entry Cc1ccc2[nH]ncc2c1-c1c(C#N)c(N2CCC3(CN(C(=O)/C=C/CN(C)C)C3)C2)cc2c1COCC2 [Example 2-94] , value?
6.21

Checklist item: pIC50 tested on KRAS G12C (Homo sapiens (Human), UniProt P01116, C118A/G12C), entry C=CC(=O)N1CC2(CCN(c3nc4c(c(-c5cc(O)ccc5C)c3C#N)C[C@H]3C[C@@H]4C3)C2)C1 (single isomer, unassigned) [Example 13-125] , value?
4.90

Checklist item: pIC50 tested on KRAS G12C (Homo sapiens (Human), UniProt P01116, C118A/G12C), entry C=CC(=O)N1CC2(CCN(c3nc4ccccc4c(-c4c(C)ccc5[nH]ncc45)c3C3CC3)C2)C1 [Example 6] , value?
5.46

Checklist item: pIC50 tested on KRAS G12C (Homo sapiens (Human), UniProt P01116, C118A/G12C), entry C=CC(=O)N1CC2(CCN(c3nc4c(c(-c5ccc(F)c6sc(N)nc56)c3C)CCC(C)(C)C4)C2)C1 (single isomer, unassigned) [Example 2-17] , value?
7.19
